Catalogue of inhibition at up to 10 µM readings, one per entry.
assayed_system: adenosine receptor 2A (A2A) (Homo sapiens, UniProt P29274)
Construct: CEREP (Poitiers, France), paid service
Sequence (P29274 whole entry): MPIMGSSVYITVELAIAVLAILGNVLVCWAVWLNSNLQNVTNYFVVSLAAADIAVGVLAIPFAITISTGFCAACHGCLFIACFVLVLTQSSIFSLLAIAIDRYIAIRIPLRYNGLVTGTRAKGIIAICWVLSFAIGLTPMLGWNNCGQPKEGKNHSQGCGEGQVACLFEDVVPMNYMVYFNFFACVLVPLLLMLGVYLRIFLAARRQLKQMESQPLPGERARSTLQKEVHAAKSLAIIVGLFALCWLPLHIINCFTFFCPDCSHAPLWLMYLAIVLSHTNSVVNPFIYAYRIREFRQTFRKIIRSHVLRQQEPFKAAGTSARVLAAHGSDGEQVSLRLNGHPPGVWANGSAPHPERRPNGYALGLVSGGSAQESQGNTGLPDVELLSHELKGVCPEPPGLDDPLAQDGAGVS
assay_method_text: Functional antagonist assay monitoring cAMP (CEREP);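 note: eight-point concentration-response from 0 to 10 µM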
Assay type: cell-based
condition_info: concentration-response up to 10 μM; read-out: IC50, cAMP
experimental_readout: inhibition at up to 10 µM

[[record]]
molecule = "C=CC1=C(C(=O)O)N2C(=O)[C@@H](NC(=O)/C(=N\\OCC(=O)O)c3csc(N)n3)[C@H]2SC1"
val = "< 50%"

[[record]]
molecule = "Cc1ccc2c(c1)c1c3n2CCNC3CCC1 (stereo not drawn)"
val = "< 50%"

[[record]]
molecule = "O=C(Oc1ccccc1C(=O)O)c1ccccc1O [Salsalate]"
val = "< 50%"

[[record]]
molecule = "CCCCCOC(=O)Nc1nc(=O)n([C@@H]2O[C@H](C)[C@@H](O)[C@H]2O)cc1F"
val = "< 50%"

[[record]]
molecule = "CC1=C(C(=O)O)N2C(=O)[C@@H](NC(=O)[C@H](N)c3ccccc3)[C@H]2SC1"
val = "< 50%"

[[record]]
molecule = "C=CC1=C(C(=O)O)N2C(=O)[C@@H](NC(=O)/C(=N\\O)c3csc(N)n3)[C@H]2SC1"
val = "< 50%"

[[record]]
molecule = "C[C@@H](O)[C@H]1C(=O)N2C(C(=O)O)=C(S[C@@H]3CN[C@H](C(=O)Nc4cccc(C(=O)O)c4)C3)[C@H](C)[C@H]12"
val = "< 50%"

[[record]]
molecule = "O=C(Nc1cccc2c(=O)cc(-c3nnn[nH]3)oc12)c1ccc(OCCCCc2ccccc2)cc1"
val = "< 50%"

[[record]]
molecule = "NC(=O)c1ncn([C@@H]2O[C@H](CO)[C@@H](O)[C@H]2O)n1"
val = "< 50%"

[[record]]
molecule = "CC1=C(C(=O)O)N2C(=O)[C@@H](NC(=O)[C@H](N)c3ccc(O)cc3)[C@H]2SC1"
val = "< 50%"

[[record]]
molecule = "CN(C)CCC(c1ccccc1)c1ccccn1 (stereo not drawn)"
val = "< 50%"

[[record]]
molecule = "COc1ccc([C@@H]2Sc3ccccc3N(CCN(C)C)C(=O)[C@@H]2OC(C)=O)cc1"
val = "< 50%"

[[record]]
molecule = "C=CCN1C[C@H](C(=O)N(CCCN(C)C)C(=O)NCC)C[C@@H]2c3cccc4[nH]cc(c34)C[C@H]21"
val = "< 50%"

[[record]]
molecule = "COc1ccc2c(c1)C(=O)N(CCc1ccc(S(=O)(=O)NC(=O)NC3CCCCC3)cc1)C(=O)C2(C)C"
val = "< 50%"

[[record]]
molecule = "NC[C@H](O)c1ccc(O)c(O)c1 [Norepinephrine]"
val = "< 50%"

[[record]]
molecule = "CN(CCOc1ccc(CC2SC(=O)NC2=O)cc1)c1ccccn1 (stereo not drawn)"
val = "< 50%"

[[record]]
molecule = "CCN1CCCC1CNC(=O)c1cc(S(N)(=O)=O)ccc1OC (stereo not drawn) [Sulpiride]"
val = "< 50%"

[[record]]
molecule = "Cc1ncc(CO)c(C=O)c1O"
val = "< 50%"


----------
Catalogue of inhibition at 10 µM readings, one per entry.
assayed_system: adenosine receptor 2A (A2A) (Homo sapiens)
Construct: CEREP (Poitiers, France), paid service
assay_method_text: Competition binding assay using radioactive ligands (CEREP);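 note: compounds screened at a single fixed 10 µM concentration for displacement of a radioligand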
condition_info: fixed compound concentration of 10 μM
experimental_readout: inhibition at 10 µM

[[record]]
compound = "NC(N)=Nc1nc(CSCCC(N)=NS(N)(=O)=O)cs1"
assayed_system = "adenosine receptor 2A (A2A) (Homo sapiens)"
experimental_readout = "inhibition at 10 µM"
val = "< 50%"

[[record]]
compound = "CN(CCOc1ccc(CC2SC(=O)NC2=O)cc1)c1ccccn1 (stereo not drawn)"
assayed_system = "adenosine receptor 2A (A2A) (Homo sapiens)"
experimental_readout = "inhibition at 10 µM"
val = "< 50%"

[[record]]
compound = "Cc1c(O)cccc1C(=O)N[C@@H](CSc1ccccc1)[C@H](O)CN1C[C@H]2CCCC[C@H]2C[C@H]1C(=O)NC(C)(C)C"
assayed_system = "adenosine receptor 2A (A2A) (Homo sapiens)"
experimental_readout = "inhibition at 10 µM"
val = "< 50%"

[[record]]
compound = "Cc1onc(-c2c(F)cccc2Cl)c1C(=O)N[C@@H]1C(=O)N2[C@@H]1SC(C)(C)[C@@H]2C(=O)O"
assayed_system = "adenosine receptor 2A (A2A) (Homo sapiens)"
experimental_readout = "inhibition at 10 µM"
val = "< 50%"

[[record]]
compound = "COC(=O)C1=C(C)NC(C)=C(C(=O)OC(C)C)C1c1cccc2nonc12 (stereo not drawn)"
assayed_system = "adenosine receptor 2A (A2A) (Homo sapiens)"
experimental_readout = "inhibition at 10 µM"
val = "< 50%"

[[record]]
compound = "C[C@@H](O)[C@H]1C(=O)N2C(C(=O)O)=C(S[C@@H]3CN[C@H](C(=O)Nc4cccc(C(=O)O)c4)C3)[C@H](C)[C@H]12"
assayed_system = "adenosine receptor 2A (A2A) (Homo sapiens)"
experimental_readout = "inhibition at 10 µM"
val = "< 50%"

[[record]]
compound = "O=C(Oc1ccccc1C(=O)O)c1ccccc1O [Salsalate]"
assayed_system = "adenosine receptor 2A (A2A) (Homo sapiens)"
experimental_readout = "inhibition at 10 µM"
val = "< 50%"

[[record]]
compound = "CC(=O)CCCCn1c(=O)c2c(ncn2C)n(C)c1=O"
assayed_system = "adenosine receptor 2A (A2A) (Homo sapiens)"
experimental_readout = "inhibition at 10 µM"
val = "< 50%"

[[record]]
compound = "CC(C)[C@H](N)C(=O)OCCOCn1cnc2c(=O)[nH]c(N)nc21"
assayed_system = "adenosine receptor 2A (A2A) (Homo sapiens)"
experimental_readout = "inhibition at 10 µM"
val = "< 50%"

[[record]]
compound = "CC(C)[N+]1(C)[C@@H]2CC[C@H]1C[C@@H](OC(=O)C(CO)c1ccccc1)C2 (stereo partly drawn) [Ipratropium bromide]"
assayed_system = "adenosine receptor 2A (A2A) (Homo sapiens)"
experimental_readout = "inhibition at 10 µM"
val = "< 50%"

[[record]]
compound = "CC1=C(C(=O)O)N2C(=O)[C@@H](NC(=O)[C@H](N)c3ccccc3)[C@H]2SC1"
assayed_system = "adenosine receptor 2A (A2A) (Homo sapiens)"
experimental_readout = "inhibition at 10 µM"
val = "< 50%"

[[record]]
compound = "CC1=C(C(=O)O)N2C(=O)[C@@H](NC(=O)[C@H](N)c3ccc(O)cc3)[C@H]2SC1"
assayed_system = "adenosine receptor 2A (A2A) (Homo sapiens)"
experimental_readout = "inhibition at 10 µM"
val = "< 50%"

